- assayTarget: recombinant rat MASP2 active protease (amino acids 296-685, C-terminal His Tag) (rat, UniProt Q9JJS8 296-685)
- Sequence (Q9JJS8 other isoform, or with tags, fused parts or gaps limits assumed): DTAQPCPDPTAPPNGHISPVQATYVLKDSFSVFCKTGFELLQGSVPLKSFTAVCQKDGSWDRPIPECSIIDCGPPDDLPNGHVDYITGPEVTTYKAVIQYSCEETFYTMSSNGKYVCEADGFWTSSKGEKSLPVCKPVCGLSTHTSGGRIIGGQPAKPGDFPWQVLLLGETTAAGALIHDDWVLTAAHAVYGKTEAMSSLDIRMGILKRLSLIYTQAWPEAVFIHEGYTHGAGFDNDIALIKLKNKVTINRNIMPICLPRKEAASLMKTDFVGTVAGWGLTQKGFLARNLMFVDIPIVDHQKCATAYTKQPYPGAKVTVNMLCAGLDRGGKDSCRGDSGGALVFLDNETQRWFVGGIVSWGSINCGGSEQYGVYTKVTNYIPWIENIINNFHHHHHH
- protocol: cell-based or functional assay
Numbered stars: 1 amine (or outer) side, 2 acyl side, 3 side chain; on linkers, the order of the positions; unused ones are H or OH. Bridge positions count the residues as written; N and C are the ends. Square brackets hold non-standard residues; d marks the D form. Ends that are not written are not given here. (R)‑Pyrrolidine‑3‑acetic acid = O=C(C[C@H]1CCN([*:1])C1)[*:2]; Oic = O=C(O)[C@@H]1C[C@@H]2CCCC[C@@H]2N1; Pen = CC(C)(S)[C@H](N)C(=O)O; Sar = CNCC(=O)O

# binder, unitsText, rat MASP2 IC50
records = [
    ("[Sar]ICSRSLP[Oic]I[Pen]IP[(R)‑Pyrrolidine‑3‑acetic acid]-OH (disulfide 3-11; N-terminus assumed; SMILES CC[C@H](C)[C@H](NC(=O)CNC)C(=O)N[C@H]1CSSC(C)(C)[C@@H](C(=O)N[C@H](C(=O)N2CCC[C@H]2C(=O)N2CC[C@H](CC(=O)O)C2)[C@@H](C)CC)NC(=O)[C@H]([C@@H](C)CC)NC(=O)[C@@H]2C[C@@H]3CCCC[C@@H]3N2C(=O)[C@@H]2CCCN2C(=O)[C@H](CC(C)C)NC(=O)[C@H](CO)NC(=O)[C@H](CCCNC(=N)N)NC(=O)[C@H](CO)NC1=O) [Example 530: ((N-Me)G)-IC+SRSLP-(Oic)-I-(Pen)+IP-((R)-Pyrrolidine-3-acetic acid)-OH]", "nM", 18.4),
    ("[Sar]ICSRSLP[Oic]I[Pen]IPD-OH (disulfide 3-11; N-terminus assumed; SMILES CC[C@H](C)[C@H](NC(=O)CNC)C(=O)N[C@H]1CSSC(C)(C)[C@@H](C(=O)N[C@H](C(=O)N2CCC[C@H]2C(=O)N[C@@H](CC(=O)O)C(=O)O)[C@@H](C)CC)NC(=O)[C@H]([C@@H](C)CC)NC(=O)[C@@H]2C[C@@H]3CCCC[C@@H]3N2C(=O)[C@@H]2CCCN2C(=O)[C@H](CC(C)C)NC(=O)[C@H](CO)NC(=O)[C@H](CCCNC(=N)N)NC(=O)[C@H](CO)NC1=O) [Example 88: ((N-Me)G)-IC+SRSLP-(Oic)-I-(Pen)+IPD-OH]", "nM", 68),
]

Reference for the values: patent US20210246166A1
